T1/2 overview
- system_tested: Neuraminidase (Influenza A virus) (UniProt B4URF0)
- settings: A/chicken/Vietnam/08/2004 (H5N1) clade 1
Write down the numeric answer in min and omit the unit.

Some compounds with known T1/2 results, for comparison:
- smiles_notation: "CC(=O)N[C@@H]1[C@@H](O)[C@@H](F)[C@](F)(C(=O)O)O[C@H]1[C@H](O)[C@H](O)CO"
  system_tested: "Neuraminidase (Influenza A virus) (UniProt B4URF0)"
  scale_unit: "min"
  T1/2: 12
- smiles_notation: "CC(=O)N[C@@H]1[C@@H](O)[C@@H](F)[C@](F)(C(=O)O)O[C@H]1C[C@H](O)CO"
  system_tested: "Neuraminidase (Influenza A virus) (UniProt B4URF0)"
  scale_unit: "min"
  T1/2: 15
- smiles_notation: "CC(=O)N[C@@H]1C[C@@H](F)[C@](F)(C(=O)O)O[C@H]1[C@H](O)[C@H](O)CO"
  system_tested: "Neuraminidase (Influenza A virus) (UniProt B4URF0)"
  scale_unit: "min"
  T1/2: 13.7

What the record says about CC(=O)N[C@@H]1[C@@H](O)[C@@H](F)[C@](F)(C(=O)O)O[C@H]1[C@H](O)[C@@H](C)O : T1/2 is 17.2

Briefly, T1/2 measured for CC(=O)N[C@@H]1[C@@H](O)[C@@H](F)[C@](F)(C(=O)O)O[C@H]1[C@H](O)CCO : 19.4

----------
- Tested on: Influenza A virus
- protocol_summary: Antiviral activity against Influenza A virus (A/Victoria/503/06) infected in MDCK cells assessed as reduction in plaque formation measured after 3 days post infection by neutral red staining-based assay
- Type: functional, organism-based
- settings: mdck
measurement_kind: EC50 (µM)
Kindly provide the numeric value in µM only, without the unit symbol.

In plain terms, CC(=O)N[C@@H]1[C@@H](O)[C@@H](F)[C@](F)(C(=O)O)O[C@H]1C[C@H](O)CO has a documented EC50 of 10

----------
Item-by-item account of IC50
- system_tested: Neuraminidase (Influenza A virus)
- Design: species or system Influenza A virus (A/chicken/Bangli/BBVD-563/2007(H5N1)), clade 2
The reply should contain only the number, in nM.

Consider the reported IC50 for these compounds:
- smiles_notation: "CC(=O)N[C@@H]1[C@@H](O)[C@@H](F)[C@](F)(C(=O)O)O[C@H]1[C@H](O)[C@H](O)CO"
  measurement_kind: "IC50"
  numeric_value: 863
- smiles_notation: "CC(=O)N[C@@H]1[C@@H](O)[C@@H](F)[C@](F)(C(=O)O)O[C@H]1[C@H](O)CCO"
  measurement_kind: "IC50"
  numeric_value: 24500

The reported value for CC(=O)N[C@@H]1C[C@@H](F)[C@](F)(C(=O)O)O[C@H]1[C@H](O)[C@H](O)CO in terms of IC50 is 583

----------
Recorded EC50 by entry
- Test system: Influenza A virus
- protocol_summary: Antiviral activity against Influenza A virus (A/Mississippi/03/01 (H1N1)) infected in MDCK cells assessed as reduction in plaque formation measured after 3 days post infection by neutral red staining-based assay
- Type: functional, organism-based
- settings: 72 h

Some solved entries appear below for comparison.
- smiles_notation: "CC(=O)N[C@@H]1[C@@H](O)[C@@H](F)[C@](F)(C(=O)O)O[C@H]1[C@H](O)[C@@H](C)O"
  EC50: "10000 to 100000 nM"
- smiles_notation: "CC(=O)N[C@@H]1[C@@H](O)[C@@H](F)[C@](F)(C(=O)O)O[C@H]1[C@H](O)CCO"
  EC50: "10000 nM"
- smiles_notation: "CC(=O)N[C@H]1[C@H]([C@H](O)[C@H](O)CO)OC(C(=O)O)=C[C@@H]1NC(=N)N"
  EC50: "≤ 1 nM"
- smiles_notation: "CC(=O)N[C@@H]1[C@@H](O)[C@@H](F)[C@](F)(C(=O)O)O[C@H]1C[C@H](O)CO"
  EC50: "100 to 1000 nM"
- smiles_notation: "CC(=O)N[C@@H]1C[C@@H](F)[C@](F)(C(=O)O)O[C@H]1[C@H](O)[C@H](O)CO"
  EC50: "1000 nM"

Continue with the compound presented below.
Please fill in: EC50 reported for CC(=O)N[C@@H]1[C@@H](O)[C@@H](F)[C@](F)(C(=O)O)O[C@H]1[C@H](O)[C@H](O)CO = 1000 nM
